Reference source for all entries: paper PMC11995724

Listed next: entries and their corresponding viability at 48 h, 25 µM.
experiment: in vitro; details: human, hek293t cells
The figure you give is taken to be in %; do not add the unit.

Below are worked cases with known answers.
{"columns": ["compound", "result-unit", "value-reported"],
 "data": [
  ["C=CC(=O)Nc1ccc(-n2ccccc2=O)cc1F", "%", 101],
  ["CC(Cl)C(=O)NCc1nnc(C2CCC2)n1C (centres unmarked)", "%", 87.1],
  ["N#CC(=Cc1ccccc1OC(F)F)C(=O)Nc1nccs1", "%", 119]
]}

Entry `C=CC(=O)NC1(c2ncon2)CCOCC1` : reported viability at 48 h, 25 µM = ?
66.9

Follow-up entry: `COc1cc(Cl)c(C)cc1NC(=O)C(C#N)=CC=Cc1ccccc1`
82

Follow-up entry: COc1ccc(NC(=O)C(C)Cl)cc1OC (centres unmarked)
109

Follow-up entry: `C=CC(=O)Nc1c(OC)nc(Cl)nc1OC`
60.2
